Test system: MCF7
Experiment: Antiproliferative activity against human MCF7 after 72 hrs by MTT assay
Format: functional, cell-based
Conditions: MCF7, 72 h
Overview of reported IC50 across a group of molecules:
parameter: IC50

1. C#CCSc1nc(Sc2nc(C)cs2)c(C#N)c(-c2cc(OC)c(OC)c(OC)c2)n1 | > 20 µM
2. C#CCSc1nc(Sc2nccs2)c(C#N)c(-c2ccc[nH]2)n1 | > 20 µM
3. C#CCSc1nc(Sc2ccccn2)c(C#N)c(-c2cc(OC)c(OC)c(OC)c2)n1 | > 10 µM
4. C#CCSc1nc(Sc2nc(C)c(C)s2)c(C#N)c(-c2cc(OC)c(OC)c(OC)c2)n1 | > 20 µM
5. C#CCSc1nc(Sc2nc3ccccc3s2)c(C#N)c(-c2cc(OC)c(OC)c(OC)c2)n1 | > 20 µM
6. C#CCSc1nc(Sc2nc[nH]n2)c(C#N)c(-c2cc(OC)c(OC)c(OC)c2)n1 | > 20 µM

###

Target: DCN1-like protein 1 (Homo sapiens, UniProt Q96GG9)
Sequence (Q96GG9 whole entry, the tested form may be a part): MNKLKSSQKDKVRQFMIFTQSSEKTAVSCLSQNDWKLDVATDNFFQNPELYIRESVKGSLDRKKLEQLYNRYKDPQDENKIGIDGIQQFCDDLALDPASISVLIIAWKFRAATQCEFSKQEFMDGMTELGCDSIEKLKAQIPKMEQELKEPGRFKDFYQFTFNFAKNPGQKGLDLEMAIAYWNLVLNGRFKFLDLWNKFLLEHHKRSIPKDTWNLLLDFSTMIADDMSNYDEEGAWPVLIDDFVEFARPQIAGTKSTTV
Assay: Binding affinity to N-terminal GST tagged recombinant human DCN1 (58 to 259 residues) expressed in Escherichia coli BL21(DE3) assessed as reduction in DCN1-FAM-labelled N-terminal acetylated UBE2M (1 to 21 residues) protein-protein interaction after 30 mins by HTRF assay
parameter: IC50

1. C#CCSc1nc(Sc2nc(C)cs2)c(C#N)c(-c2cc(OC)c(OC)c(OC)c2)n1 | > 10 µM
2. C#CCSc1nc(Sc2nccn2C)c(C#N)c(-c2cc(OC)c(OC)c(OC)c2)n1 | > 2.5 µM
3. N#Cc1c(Sc2nccs2)nc(SCc2cn(Cc3ccccc3)nn2)nc1-c1ccc(Cl)cc1 | > 10 µM
4. C#CCSc1nc(Nc2nnnn2C)c(C#N)c(-c2cc(OC)c(OC)c(OC)c2)n1 | > 10 µM
5. C#CCSc1nc(Sc2nnnn2C)c(C#N)c(-c2ccccc2)n1 | > 20 µM
6. C#CCSc1nc(Sc2nc[nH]n2)c(C#N)c(-c2cc(OC)c(OC)c(OC)c2)n1 | > 5 µM
7. C#CCSc1nc(-c2cc(OC)c(OC)c(OC)c2)c(C#N)c(N2CCSCC2)n1 | > 5 µM
8. CCCSc1nc(Sc2nccs2)c(C#N)c(-c2ccc(Cl)cc2)n1 | > 10 µM
9. C#CCSc1nc(Sc2nnnn2C)c(C#N)c(-c2c[nH]c3ccccc23)n1 | > 10 µM
10. C=CCSc1nc(Sc2nccs2)c(C#N)c(-c2ccc(Cl)cc2)n1 | > 10 µM
11. C#CCSc1nc(Nc2cccc(C(F)(F)F)c2)c(C#N)c(-c2cc(OC)c(OC)c(OC)c2)n1 | > 10 µM
12. C#CCSc1nc(Sc2nc3ccccc3s2)c(C#N)c(-c2cc(OC)c(OC)c(OC)c2)n1 | > 5 µM
13. C#CCSc1nc(Sc2nnnn2C)c(C#N)c(-c2ccc[nH]2)n1 | > 10 µM
14. C#CCSc1nc(-c2cc(OC)c(OC)c(OC)c2)c(C#N)c(N2CCOCC2)n1 | > 10 µM
15. C#CCSc1nc(Sc2nc(C)c(C)s2)c(C#N)c(-c2cc(OC)c(OC)c(OC)c2)n1 | > 10 µM
16. C#CCSc1nc(Sc2nccs2)c(C#N)c(-c2ccc[nH]2)n1 | > 10 µM
17. C#CCSc1nc(-c2cc(OC)c(OC)c(OC)c2)c(C#N)c(N2CCCCC2)n1 | > 5 µM
18. C#CCSc1nc(Sc2nnnn2C)c(C#N)c(-c2cccs2)n1 | > 10 µM

Data credit: ChEMBL document CHEMBL4396897
